Tested on: NCI-H322M lung
MEASUREMENT PROTOCOL: NCI tumour cell line growth inhibition, 384-well format
Residues, ends and D or L forms follow the SMILES beside them. *: point of attachment. Cbz = O=C(OCc1ccccc1)*

[
  {
    "MOLECULE": "CC(C)C[C@@H](C=O)NC(=O)[C@H](CC(C)C)NC(=O)[C@H](CC(C)C)NC(=O)OCc1ccccc1 (Cbz-Leu-Leu-Leu-aldehyde)",
    "READING QUALIFIER": "=",
    "TGI, nM": 1290
  },
  {
    "MOLECULE": "C=CC(=O)Nc1cccc(Oc2nc(Nc3ccc(N4CCN(C)CC4)cc3OC)ncc2Cl)c1",
    "READING QUALIFIER": "=",
    "TGI, nM": 1670
  },
  {
    "MOLECULE": "Cc1[nH]nc2ncc(C(=O)N3CCC[C@H]3c3ccc(Cl)cc3)cc12",
    "READING QUALIFIER": ">",
    "TGI, nM": 100000
  },
  {
    "MOLECULE": "Cc1ccccc1C(C(=O)NC1CCCCC1)N(C(=O)CNc1ccc(C#N)cc1)c1cccc(F)c1 (centres undefined)",
    "READING QUALIFIER": ">",
    "TGI, nM": 100000
  }
]

All values here come from PubChem BioAssay (NCI).
